Experiment: refractive index (Na D-line) (dimensionless)
Conditions: 298.15 K; 101.33 kPa; Liquid; Standard Abbe refractometry
Value kind: refractive index

[[record]]
compound = "CCCCNCCCC [dibutylamine]"
value_kind = "refractive index"
quantitative_result = 1.41488

[[record]]
compound = "CN(C)C=O [dimethylformamide]"
value_kind = "refractive index"
quantitative_result = 1.42828

[[record]]
compound = "CCCNCCC [dipropylamine]"
value_kind = "refractive index"
quantitative_result = 1.40139

[[record]]
compound = "CCCCN [1-butanamine]"
value_kind = "refractive index"
quantitative_result = 1.39786

[[record]]
compound = "CCCCCCN [1-hexanamine]"
value_kind = "refractive index"
quantitative_result = 1.41577


###

Settings: 303.15 K; 101.33 kPa; Liquid; Sing-around technique in a fixed-path interferometer
Value kind: speed of sound (m/s)

[[record]]
compound = "CCCCCCN [1-hexanamine]"
value_kind = "speed of sound"
quantitative_result = 1283.6

[[record]]
compound = "CN(C)C=O [dimethylformamide]"
value_kind = "speed of sound"
quantitative_result = 1438.2

[[record]]
compound = "CCCCN [1-butanamine]"
value_kind = "speed of sound"
quantitative_result = 1224.6

[[record]]
compound = "CCCCNCCCC [dibutylamine]"
value_kind = "speed of sound"
quantitative_result = 1222.5

[[record]]
compound = "CCCNCCC [dipropylamine]"
value_kind = "speed of sound"
quantitative_result = 1167.2


###

Settings: 293.15 K; 101.33 kPa; Liquid; Vibrating tube method
Value kind: mass density (kg/m3)

[[record]]
compound = "CCCNCCC [dipropylamine]"
quantitative_result = 738.194

[[record]]
compound = "CCCCCCN [1-hexanamine]"
quantitative_result = 764.423

[[record]]
compound = "CCCCNCCCC [dibutylamine]"
quantitative_result = 759.695

[[record]]
compound = "CN(C)C=O [dimethylformamide]"
quantitative_result = 948.881

[[record]]
compound = "CCCCN [1-butanamine]"
quantitative_result = 737.048


###

Conditions: 298.15 K; 101.33 kPa; Liquid; Sing-around technique in a fixed-path interferometer
Value kind: speed of sound (m/s)

[[record]]
compound = "CCCCN [1-butanamine]"
value_kind = "speed of sound"
unit = "m/s"
quantitative_result = 1246

[[record]]
compound = "CN(C)C=O [dimethylformamide]"
value_kind = "speed of sound"
unit = "m/s"
quantitative_result = 1457.2

[[record]]
compound = "CCCCCCN [1-hexanamine]"
value_kind = "speed of sound"
unit = "m/s"
quantitative_result = 1303.6

[[record]]
compound = "CCCNCCC [dipropylamine]"
value_kind = "speed of sound"
unit = "m/s"
quantitative_result = 1187.7

[[record]]
compound = "CCCCNCCCC [dibutylamine]"
value_kind = "speed of sound"
unit = "m/s"
quantitative_result = 1241.5


###

Test: refractive index (Na D-line) (dimensionless)
Settings: 293.15 K; 101.33 kPa; Liquid; Standard Abbe refractometry
Value kind: refractive index

[[record]]
compound = "CN(C)C=O [dimethylformamide]"
quantitative_result = 1.43055

[[record]]
compound = "CCCCN [1-butanamine]"
quantitative_result = 1.4006

[[record]]
compound = "CCCCNCCCC [dibutylamine]"
quantitative_result = 1.41724

[[record]]
compound = "CCCNCCC [dipropylamine]"
quantitative_result = 1.40432

